# study.system: T1, human IL-36R (human, UniProt Q9HB29 20-575)
# T1 sequence (looked up): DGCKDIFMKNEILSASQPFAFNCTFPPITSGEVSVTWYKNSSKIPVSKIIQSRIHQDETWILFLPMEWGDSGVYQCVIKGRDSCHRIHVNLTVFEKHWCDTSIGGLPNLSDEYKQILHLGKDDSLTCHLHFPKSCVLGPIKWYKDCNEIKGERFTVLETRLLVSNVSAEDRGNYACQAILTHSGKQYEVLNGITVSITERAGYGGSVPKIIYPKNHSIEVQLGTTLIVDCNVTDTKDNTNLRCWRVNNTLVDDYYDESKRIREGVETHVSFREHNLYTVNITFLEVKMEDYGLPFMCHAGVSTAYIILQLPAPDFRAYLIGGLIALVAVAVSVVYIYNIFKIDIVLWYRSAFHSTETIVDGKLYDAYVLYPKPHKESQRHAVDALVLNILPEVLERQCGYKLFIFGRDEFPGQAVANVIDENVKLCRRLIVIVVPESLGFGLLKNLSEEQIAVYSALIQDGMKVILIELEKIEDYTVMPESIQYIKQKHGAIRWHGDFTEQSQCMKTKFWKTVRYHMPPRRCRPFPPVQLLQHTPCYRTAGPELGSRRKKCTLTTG
# protocol.text: cell-based or functional assay
measurement.name: IC50, GM-CSF release under IL-36 α stimulation (NCI/ADR-RES cells) (ng/mL)
Kindly answer with a numeric value in ng/mL, unit omitted.

Check out these entries, answers already filled in.
# binder, observed.result
measured = [
    ("anti-IL-36R chimeric antibody 900497 (antibody, V domains shown, Human-mouse chimera: human IgG1 heavy-chain constant region with L234A and L235A (Eu numbering), human kappa constant region) VH: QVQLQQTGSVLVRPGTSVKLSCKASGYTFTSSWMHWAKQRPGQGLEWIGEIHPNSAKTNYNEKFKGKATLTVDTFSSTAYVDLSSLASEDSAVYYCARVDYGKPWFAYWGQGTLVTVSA VL: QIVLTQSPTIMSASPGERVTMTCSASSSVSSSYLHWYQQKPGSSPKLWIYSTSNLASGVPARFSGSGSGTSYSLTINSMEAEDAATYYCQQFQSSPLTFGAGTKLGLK", 32.8),
    ("humanized anti-IL-36R antibody 900534 (antibody, V domains shown, IgG1 (human IgG1 L234A/L235A, human kappa)) VH: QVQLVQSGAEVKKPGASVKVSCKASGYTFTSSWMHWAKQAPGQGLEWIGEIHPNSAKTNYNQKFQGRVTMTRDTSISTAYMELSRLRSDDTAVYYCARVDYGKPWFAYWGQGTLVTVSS VL: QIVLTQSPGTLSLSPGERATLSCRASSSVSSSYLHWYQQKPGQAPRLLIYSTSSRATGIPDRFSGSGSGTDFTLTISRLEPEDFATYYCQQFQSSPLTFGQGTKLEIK", 20.2),
    ("humanized anti-IL-36R antibody 900513 (antibody, V domains shown, IgG1; built from the chimeric expression plasmids (human IgG1 L234A/L235A, human kappa)) VH: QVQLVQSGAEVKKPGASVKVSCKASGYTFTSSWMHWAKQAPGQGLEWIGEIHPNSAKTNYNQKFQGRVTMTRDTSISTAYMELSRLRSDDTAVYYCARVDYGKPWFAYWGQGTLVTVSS VL: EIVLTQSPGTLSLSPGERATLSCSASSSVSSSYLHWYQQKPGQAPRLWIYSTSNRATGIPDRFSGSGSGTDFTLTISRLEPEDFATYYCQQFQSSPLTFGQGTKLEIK", 20.6),
]

Input: Given humanized anti-IL-36R antibody 900527 (antibody, V domains shown, IgG1 (human IgG1 L234A/L235A, human kappa); also called HB0034) VH: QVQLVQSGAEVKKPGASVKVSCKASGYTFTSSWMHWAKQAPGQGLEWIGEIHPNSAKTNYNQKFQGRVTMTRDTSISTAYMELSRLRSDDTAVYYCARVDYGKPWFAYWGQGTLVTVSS VL: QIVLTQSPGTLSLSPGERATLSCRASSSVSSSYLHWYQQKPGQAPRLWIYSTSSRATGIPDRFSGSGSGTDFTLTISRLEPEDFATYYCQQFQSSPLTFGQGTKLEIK , state its recorded IC50, GM-CSF release under IL-36 α stimulation (NCI/ADR-RES cells).
Output: 22

Taken from patent US20230399409A1.
